Would you mind telling me the reported T/C of each entry?
- Tested on: CD2F1 mice, L1210 leukemia ip, survival T/C
- experiment.notes: NCI In Vivo Anticancer Drug Screen. Data for tumor model L1210 Leukemia (intraperitoneal) in CD2F1 (CDF1) mice
- test.conditions: endpoint: mean survival time; dose: 100.0 mg/kg/injection; schedule: Q01DX005 (ip); vehicle: water; higher = longer survival
Toxic doses and inconclusive results are not listed.

Prompt: Find the measured T/C: item CCOC(=O)CCCSc1nn(C2OC(CO)C(O)C2O)c(=O)[nH]c1=O (stereo unspecified) , target or system CD2F1 mice, L1210 leukemia ip, survival T/C.
Response: 98 % of control

Prompt: Queued: NC(=O)c1ncn(C2OCC(O)C(O)C2O)c1N (stereo unspecified)
Response: 98 % of control

Prompt: Record: O=c1ccn(C2OC(CO)C(F)(CO)C2O)c(=O)[nH]1 (stereo unspecified)
Response: 94 % of control

Prompt: Now this one: CC(=O)OCC1OC(n2ncc3c(Cl)ncnc32)C(OC(C)=O)C1OC(C)=O (stereo unspecified)
Response: 112 % of control

Prompt: Moving on to the next molecule: Cn1c(=O)c2c(nc(N3CCOCC3)n2CCCNCC(O)c2ccc(O)cc2)n(C)c1=O (stereo unspecified)
Response: 98 % of control

Prompt: Cool, now Cn1ncc2c(N)nc(-c3ccccn3)nc21
Response: 94 % of control

* * *

- Tested on: CD2F1 mice, L1210 leukemia ip, survival T/C
- experiment.notes: NCI In Vivo Anticancer Drug Screen. Data for tumor model L1210 Leukemia (intraperitoneal) in CD2F1 (CDF1) mice
- test.conditions: endpoint: mean survival time; dose: 200.0 mg/kg/injection; schedule: Q01DX001 (ip); vehicle: Klucel (hydroxypropylcellulose) (HPC); higher = longer survival
Toxic doses and inconclusive results are not listed.
assay.readout: T/C

Prompt: Field request: T/C | item: COC(=O)c1cc(-c2ccccc2)n(-c2ccccc2)c1-c1ccccc1
Response: 89 % of control

Prompt: Try this molecule next: Nc1ccc(C(=O)O)c([N+](=O)[O-])c1
Response: 100 % of control

Prompt: Same question, O=S(=O)(c1ccc(Cl)cc1)c1ccc(Cl)cc1 this time
Response: 90 % of control

Prompt: Param item: N=Cc1ccccc1
Response: 96 % of control

Prompt: Again, but for CSc1nc(N)c(N=O)c(=O)[nH]1
Response: 100 % of control

Prompt: Field entry: Clc1ccc(-c2nc3ccccc3s2)cc1
Response: 95 % of control

* * *

- System: CD2F1 mice, L1210 leukemia ip, survival T/C
- experiment.notes: NCI In Vivo Anticancer Drug Screen. Data for tumor model L1210 Leukemia (intraperitoneal) in CD2F1 (CDF1) mice
- test.conditions: endpoint: mean survival time; dose: 100.0 mg/kg/injection; schedule: Q01DX009 (ip); vehicle: water; higher = longer survival
Inconclusive results and toxic doses are left out.
Please provide measured T/C for the entries that follow.

Prompt: So what does the record say about T/C for O=C1NC(CN2CCOCC2)C(=O)NC1CN1CCOCC1 (stereo not drawn) ?
Response: 106 % of control

Prompt: Continue with CNC(=O)c1n[nH]c(C)c1N
Response: 101 % of control

Prompt: Now this one: CCOC(=O)C(C(C)=O)C(C)C (stereo not drawn)
Response: 102 % of control
